Listed below: protein stability index values for each entry.
B1: ATE1 (parent)
chain: YGSFHQQYWLDGKIIAVGVIDILP

- Variants of: B1
- test_details: protein stability index of a GFP-peptide fusion (GPS, HEK-293T) (PSI 1-6); higher = more stable;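 note: lentivirally expressed fusions sorted by FACS into six bins by GFP to DsRed ratio, PSI derived from sequencing read proportions per bin multiplied by bin number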
- test_parameters: c terminus: a fixed tail appended
assay_endpoint: protein stability index

mutation_code: Q7C
numeric_value: 3.33

mutation_code: H5A
numeric_value: 2.77

mutation_code: V19P
numeric_value: 3.09

mutation_code: G12A
numeric_value: 2.54

mutation_code: I15E
numeric_value: 3.12

mutation_code: P24I
numeric_value: 2.73

mutation_code: H5P
numeric_value: 2.32

mutation_code: L23G
numeric_value: 2.94

mutation_code: I14Q
numeric_value: 2.72

mutation_code: G18Y
numeric_value: 1.96

mutation_code: A16T
numeric_value: 2.7
